Origin of values: the supplement of paper PMC11246515

assay: total protein half-life in vivo (active degradation + dilution); higher = more stable protein; details: E. coli NCM3722 delta-smpB; growth: N-lim chemostat; doubling time 6 h
Examples of sequences with documented total protein half-life in vivo follow.
Reply numerically in h, unit not repeated.

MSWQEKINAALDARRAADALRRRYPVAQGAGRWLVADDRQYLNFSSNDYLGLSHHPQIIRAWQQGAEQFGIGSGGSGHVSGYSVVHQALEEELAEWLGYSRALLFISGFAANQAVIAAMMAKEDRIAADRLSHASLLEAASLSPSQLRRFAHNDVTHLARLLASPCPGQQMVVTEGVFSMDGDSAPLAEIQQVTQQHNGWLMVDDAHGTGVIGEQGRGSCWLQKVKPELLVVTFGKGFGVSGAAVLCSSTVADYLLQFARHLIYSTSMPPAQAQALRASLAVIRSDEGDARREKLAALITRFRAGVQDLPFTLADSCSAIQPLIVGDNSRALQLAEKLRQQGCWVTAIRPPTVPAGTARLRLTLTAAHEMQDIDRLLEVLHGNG = 3.54

Consider the sequence `MAAVNLRHIEIFHAVMTAGSLTEAAHLLHTSQPTVSRELARFEKVIGLKLFERVRGRLHPTVQGLRLFEEVQRSWYGLDRIVSAAESLREFRQGELSIACLPVFSQSFLPQLLQPFLARYPDVSLNIVPQESPLLEEWLSAQRHDLGLTETLHTPAGTERTELLSLDEVCVLPPGHPLAVKKVLTPDDFQGENYISLSRTDSYRQLLDQLFTEHQVKRRMIVETHSAASVCAMVRAGVGISVVNPLTALDYAASGLVVRRFSIAVPFTVSLIRPLHRPSSALVQAFSGHLQAGLPKLVTSLDAILSSATTA` and give its recorded total protein half-life in vivo.
5.18

* * *

assay: total protein half-life in vivo (active degradation + dilution); higher = more stable protein; conditions: wild type E. coli NCM3722; growth: P-lim chemostat; doubling time 12 h
Use 10 h as the dividing line for total protein half-life in vivo, with the line itself on the T side and lower values as F.

MSQVSTEFIPTRIAILTVSNRRGEEDDTSGHYLRDSAQEAGHHVVDKAIVKENRYAIRAQVSAWIASDDVQVVLITGGTGLTEGDQAPEALLPLFDREVEGFGEVFRMLSFEEIGTSTLQSRAVAGVANKTLIFAMPGSTKACRTAWENIIAPQLDARTRPCNFHPHLKK [P0AEZ9] = T
MSESLSWMQTGDTLALSGELDQDVLLPLWEMREEAVKGITCIDLSRVSRVDTGGLALLLHLIDLAKKQGNNVTLQGVNDKVYTLAKLYNLPADVLPR = T
MTLETAFMLPVQDAQHSFRRLLKAMSEPGVIVALHQLKRGWQPLNIATTSVLLTLADNDTPVWLSTPLNNDIVNQSLRFHTNAPLVSQPEQATFAVTDEAISSEQLNALSTGTAVAPEAGATLILQVASLSGGRMLRLTGAGIAEERMIAPQLPECILHELTERPHPFPLGIDLILTCGERLLAIPRTTHVEVC = F

Tell me whether total protein half-life in vivo is at least 10 h here: MRIVTAAVMASTLAVSSLSHAAEVGSGDNWHPGEELTQRSTQSHMFDGISLTEHQRQQMRDLMQQARHEQPPVNVSELETMHRLVTAENFDENAVRAQAEKMANEQIARQVEMAKVRNQMYRLLTPEQQAVLNEKHQQRMEQLRDVTQWQKSSSLKLLSSSNSRSQ [P0AE85]
F

Is the recorded value of total protein half-life in vivo equal to or greater than 10 h for this sequence? MFNSDNLRLDGKCAIITGAGAGIGKEIAITFATAGASVVVSDINADAANHVVDEIQQLGGQAFACRCDITSEQELSALADFAISKLGKVDILVNNAGGGGPKPFDMPMADFRRAYELNVFSFFHLSQLVAPEMEKNGGGVILTITSMAAENKNINMTSYASSKAAASHLVRNMAFDLGEKNIRVNGIAPGAILTDALKSVITPEIEQKMLQHTPIRRLGQPQDIANAALFLCSPAASWVSGQILTVSGGGVQELN [P0AET8]
T
